The values you see were collected from patent US20240075137A1.

experimentalSystem: T1, human PVRIG on cells (human, UniProt Q6DKI7 1-326)
T1 construct: whole, on cells; over-expressed on HEK cells or endogenous on Jurkat and CD8 T cells; also called hPVRIG; HEK hPVRIG cells
T1 sequence (looked up): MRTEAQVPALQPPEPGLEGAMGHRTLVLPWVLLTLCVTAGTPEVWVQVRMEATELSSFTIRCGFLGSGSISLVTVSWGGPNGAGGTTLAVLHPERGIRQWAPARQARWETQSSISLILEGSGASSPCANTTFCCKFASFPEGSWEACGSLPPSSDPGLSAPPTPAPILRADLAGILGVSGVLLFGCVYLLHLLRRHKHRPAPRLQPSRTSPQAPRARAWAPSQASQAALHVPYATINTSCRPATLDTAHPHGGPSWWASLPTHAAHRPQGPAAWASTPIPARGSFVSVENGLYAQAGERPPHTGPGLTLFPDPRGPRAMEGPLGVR
assayOverview: FACS, HEK hPVRIG cells (HEK OE)
measuredProperty: pEC50
Give only the number. pEC50 is defined as minus log10 of concentration in molar units.

# example entries with known answers
binder	measuredProperty	testValue
CHA.7.537 (antibody, V domains shown) VH: QVQLKESGPGLVAPSQSLSITCTVSGFSLIGHGVNWIRQPPGKGLEWLGVIWGDGNTDYNSALKSRLSISKDNSKSQVFLKMNSLQTDDTARYFCAVNSAMDYWGQGTAVTVSS VL: NIVMTQSPKSMSMSVGERVTLNCTASENVASFVSWYQQKPEQSPKLLIYGTSNRYTGVPDRFTGSGSATDFTLTISSVQAEDLGDYHCGQSYNYPFTFGSGTKLEIE	pEC50	8.61
CHA.7.502 (antibody, V domains shown) VH: DVQLVESGGDLVQPGGSRKLSCTASGFTFSNFGMHWVRQAPEKGLEWVAYISSGSSTIYYADTVKGRFTISRDNPENTLFLQMTSLRSEDTAMYYCTRLDYYTNSYSMDHWGQGTSVTVSS VL: QIVLTQSPALMSASPGEKVTLTCSASSSLPYIYWYQQKPGSSPKPWIYLTSNLASGVPARFSGSRSGTSYSLTISSVEAEDAATYYCQQWSSNPFTFGSGTKLEIK	pEC50	7.40

Q: Return pEC50 (reported value) for this binder: CHA.7.512 (antibody, V domains shown) VH: QIQLVQSGPELKKPRETVKISCKASGYTFTDYSMHWVKQAPGKGLKWMGWINTETGEPTYADDFKGRFAFSLEASASSAYLQINILKDEDTATYFCARSRGGYYEDYYALDYWGQGTSVTVSS VL: DIQMTQSPASLSASVGESVTITCRASGNIHYYLAWYQQKQGKSPQLLVYNAKNLADGVPSRFSGSGSGTQFSLKINSLQPEDFGSYYCQHFWISPPTFGGGTKLEIK
Result: 7.28
